Target: T1, SLK peptide complexed with HLA-A*02:01 on T2 cells (human)
T1 construct: whole, on cells
Assay: flow cytometry, peptide-loaded T2 cells;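 further: binding of single-chain Fv antibody constructs, raised in XenoMouse, to peptide-pulsed T2 cells measured by flow cytometry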
READOUT_TYPE: Signal/background
Form: value (number only, do not type unit).

18179-C1 (scFv, scFv in bacterial lysate, detected with anti-Flag M2) scFv: EVQLLESGAEVKKPGASVKVSCKASGYTFTRNGLSWVRQAPGQGLEWMGWISGYNGDTNYAQKLQGRGTMTTDTSTSTAYMELRSLRSDDTAVYYCARGRATFDYWGQGTLVTVSSGGGGSGGGGSGGGGSELVMTQSPSSLSASVGDRVTITCRASQGISNYLAWYQQKPGKVPKLLISAASTLQSGVPSRFSGSGSGTDFTLTISSLQPEDVATYYCQKYNSAPFTFGPGTKVDIK: 1

Enquiry: Specify reported Signal/background for the binder shown: 18182-B5 (scFv, scFv in bacterial lysate, detected with anti-Flag M2) scFv: EVQLLESGGGLVQPGGSLRLSCAASGFTFSSHAMSWVRQAPGKGLEWVSAISGSGGGTYYADSVKGRFTISRDNSKNTLYLQMNSLRAEDTAVYYCATGKGVHLGFDYWGQGTLVTVSSGGGGSGGGGSGGGGSELVLTQPPSVSVAPGQTARITCGGNNIGSKSVHWYQQKPGQAPVLVVYDDNDRPSGIPERFSGSNFGNTATLIISRVEAGDEADYYCQVWDSSSDHVVFGGGTKLTVL
Return: 1

These data points were gathered from patent US20220017636A1.
